# credit: ChEMBL document CHEMBL1156631

- target system: Cannabinoid receptor 2 (Homo sapiens)
- Sequence (P34972 whole entry): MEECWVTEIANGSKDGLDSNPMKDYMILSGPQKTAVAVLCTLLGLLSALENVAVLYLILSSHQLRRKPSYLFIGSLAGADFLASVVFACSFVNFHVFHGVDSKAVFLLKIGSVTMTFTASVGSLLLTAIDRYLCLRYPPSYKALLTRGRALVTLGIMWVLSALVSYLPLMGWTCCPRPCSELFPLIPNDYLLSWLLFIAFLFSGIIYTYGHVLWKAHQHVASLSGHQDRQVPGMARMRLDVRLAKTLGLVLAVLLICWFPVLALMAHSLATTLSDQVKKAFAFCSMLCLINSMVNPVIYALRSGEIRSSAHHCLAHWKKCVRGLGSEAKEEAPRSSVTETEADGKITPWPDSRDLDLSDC
- assay overview: Agonist activity at human recombinant CB2 receptor expressed in Sf9 cells by GTP-europium binding assay
For each record, write down the corresponding pEC50.
Answers are plain numbers, as −log10 of the molar value.

Dear colleague, could you please provide pEC50 for the compounds listed below?
1. CCn1c2ccccc2c2cc(NC(=O)CCc3nc(-c4ccncc4C#N)no3)ccc21
2. O=C(CCc1nc(-c2ccc(F)cc2Cl)no1)Nc1ccc(C(F)(F)F)nc1

Reply text:
[8.42, 7.01]

* * *

- target system: Cannabinoid receptor 2 (Homo sapiens)
- assay overview: Agonist activity at human recombinant CB2 receptor expressed in Sf9 cells by GTP-europium binding assay
For each record, write down the corresponding pEC50.
Numbers only, as −log10 of the molar value.

Below: 5 molecules and their reported pEC50.
>  <compound>
CCn1c2ccccc2c2cc(NC(=O)CCc3nc(-c4ccc(F)cc4C#N)no3)ccc21

>  <pEC50>
9.07

$$$$
>  <compound>
Fc1ccc(-c2noc(CCCNc3cnc4ccc(OC(F)(F)F)cc4c3)n2)c(Cl)c1

>  <pEC50>
10.82

$$$$
>  <compound>
CC(C)c1ccc(NC(=O)CCc2nc(-c3ccc(F)cc3Cl)no2)cc1

>  <pEC50>
8.00

$$$$
>  <compound>
O=C(CCc1nc(-c2ccc(F)cc2Cl)no1)Nc1nc2ccc(OC(F)(F)F)cc2s1

>  <pEC50>
8.52

$$$$
>  <compound>
Fc1ccc(-c2noc(CCCNc3nc4ccc(Cl)cc4s3)n2)c(Cl)c1

>  <pEC50>
6.77

$$$$

Dear colleague, could you please provide pEC50 for the molecules listed below?
1. CC(C)(C)c1ncc(OCCCc2nc(-c3ccc(F)cc3Cl)no2)cn1
2. CCn1c2ccccc2c2cc(NC(=O)CCc3nc(-c4ccc(F)cc4C)no3)ccc21
3. O=C(CCc1nc(-c2ccc(F)cc2Cl)no1)Nc1nnc(N2CCCCC2)s1
4. CC(C)(C)c1cc(NC(=O)CCc2nc(-c3ccc(F)cc3Cl)no2)no1
5. Fc1ccc(-c2noc(CCCOc3cnc4ccc(Cl)cc4c3)n2)c(Cl)c1

Reply text:
1. 8.31
2. 10.05
3. 8.92
4. 9.70
5. 8.14

* * *

- target system: Cannabinoid receptor 1 (Homo sapiens, UniProt P21554)
- Sequence (P21554 whole entry): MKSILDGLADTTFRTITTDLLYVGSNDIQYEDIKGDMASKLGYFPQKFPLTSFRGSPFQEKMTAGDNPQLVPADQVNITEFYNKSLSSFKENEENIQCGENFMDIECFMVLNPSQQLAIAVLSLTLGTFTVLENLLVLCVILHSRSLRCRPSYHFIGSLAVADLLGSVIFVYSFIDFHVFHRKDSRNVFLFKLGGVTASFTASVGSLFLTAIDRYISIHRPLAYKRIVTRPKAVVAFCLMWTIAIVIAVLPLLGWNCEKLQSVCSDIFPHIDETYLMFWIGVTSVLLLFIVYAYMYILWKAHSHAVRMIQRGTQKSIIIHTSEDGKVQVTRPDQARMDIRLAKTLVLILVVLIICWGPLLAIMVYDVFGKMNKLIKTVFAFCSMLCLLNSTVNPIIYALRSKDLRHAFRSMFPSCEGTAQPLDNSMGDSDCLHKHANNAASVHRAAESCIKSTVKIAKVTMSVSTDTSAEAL
- assay overview: Agonist activity at human recombinant CB1 receptor expressed in CHO-K1 cells assessed as inhibition of forskolin-stimulated intracellular cAMP level
- Type: functional, cell-based
pEC50: −log10 of the molar value.
metric name: pEC50

>  <compound>
Fc1ccc(-c2noc(CCCNc3nc4ccc(Cl)cc4s3)n2)c(Cl)c1

>  <target system>
Cannabinoid receptor 1 (Homo sapiens, UniProt P21554)

>  <pEC50>
< 6.00

$$$$
>  <compound>
CC(C)(C)c1ncc(OCCCc2nc(-c3ccc(F)cc3Cl)no2)cn1

>  <target system>
Cannabinoid receptor 1 (Homo sapiens, UniProt P21554)

>  <pEC50>
5.82

$$$$

Dear colleague, could you please provide pEC50 for the compounds listed below?
1. CCn1c2ccccc2c2cc(NC(=O)CCc3nc(-c4ccc(F)cc4C)no3)ccc21
2. O=C(CCc1nc(-c2ccc(F)cc2Cl)no1)Nc1nnc(N2CCCCC2)s1

Reply text:
1. < 6.00
2. < 6.00

Dear colleague, could you please provide pEC50 for the compounds listed below?
1. CC(C)(C)c1cc(NC(=O)CCc2nc(-c3ccc(F)cc3Cl)no2)no1
2. Fc1ccc(-c2noc(CCCOc3cnc4ccc(Cl)cc4c3)n2)c(Cl)c1
3. O=C(CCc1nc(-c2ccc(F)cc2Cl)no1)Nc1ccc(C(F)(F)F)cc1

Reply text:
1. < 6.00
2. 6.00
3. < 6.00

Dear colleague, could you please provide pEC50 for the compounds listed below?
1. O=C(CCc1nc(-c2ccc(F)cc2Cl)no1)Nc1ccc(C(F)(F)F)nc1
2. O=C(CCc1nc(-c2ccc(F)cc2Cl)no1)Nc1cnc2ncc(Cl)cc2c1
3. CCn1c2ccccc2c2cc(NC(=O)CCc3nc(-c4ccc(F)cc4Cl)no3)ccc21

Reply text:
< 6.00
< 6.00
< 6.00
